These entries and their values trace back to patent US10584119B2.

Test system: AN3CA
Run Description: CellTiter-Blue cell viability assay, AN3CA cell line
Format: cell-based
Measurement Parameters: Homo sapiens, AN3-CA, 72 hour treatment, concentration that inhibits cell growth by 50 percent of control
Recorded pIC50 for the following compounds
Hey, just a heads up that pIC50 is the negative log base 10 of the concentration in molar.

The examples below pair each entry with its known result.
1) Cc1ccc(-c2ccn[nH]2)cc1-c1cc(C2CC2)nn1-c1ccc(S(N)(=O)=O)cc1 5.48
2) Cc1ccc(-c2cccnc2)cc1-c1cc(C(F)(F)F)nn1-c1ccc(S(N)(=O)=O)cc1 5.04
3) Cc1ccc(-c2ccn[nH]2)cc1-c1cc(C(F)(F)F)nn1-c1ccc(S(N)(=O)=O)cc1 7.40

Field: next compound
Given the compound `COc1ccc(C(C)C)cc1-c1cc(C(F)(F)F)nn1-c1ccc(S(N)(=O)=O)cc1` , write its reported pIC50.
5.24
